# tested on: hGPR65 (Homo sapiens)
# Construct: expressed in transfected cells; host or cells: HeLa (ATCC CCL-2), lentiviral transduction, pLX317
# Sequence (Q8IYL9 whole entry): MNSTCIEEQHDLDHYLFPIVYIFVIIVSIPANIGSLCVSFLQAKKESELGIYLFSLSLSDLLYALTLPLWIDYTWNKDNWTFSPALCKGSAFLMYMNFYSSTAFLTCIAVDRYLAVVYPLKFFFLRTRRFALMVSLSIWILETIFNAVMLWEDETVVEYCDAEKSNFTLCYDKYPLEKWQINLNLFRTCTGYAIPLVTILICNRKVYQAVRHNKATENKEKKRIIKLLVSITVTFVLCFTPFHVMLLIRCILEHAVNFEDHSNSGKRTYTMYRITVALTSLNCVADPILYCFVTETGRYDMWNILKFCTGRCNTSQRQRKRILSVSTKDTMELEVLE
# assay: cAMP detection in HeLa expression cell line, hGPR65
# Type: cell-based
# cond: HeLa, 1st hGPR column pair; relative to 100uM forskolin (100%) and DMSO (0%); NA = no activity; read-out: hGPR Max Activity %
value type: Emax (%)
Report the figure in % without appending any unit label.

[
  {
    "smiles repr": "Cc1ccc(NC(=O)c2cnn3c(O)cc(-c4ccc(-c5ccccc5)cc4)nc23)cc1",
    "value type": "Emax",
    "unit name": "%",
    "recorded number": 79.2
  },
  {
    "smiles repr": "COCc1ccc(-c2cc(O)n3ncc(C(=O)Nc4ccc(C)cc4)c3n2)cc1",
    "value type": "Emax",
    "unit name": "%",
    "recorded number": 78.8
  },
  {
    "smiles repr": "Cc1ccc(NC(=O)c2cnn3c(O)cc(-c4ccc(COC(C)C)cc4)nc23)cc1F",
    "value type": "Emax",
    "unit name": "%",
    "recorded number": 80.5
  }
]

For the molecule `COCc1ccc(-c2cc(O)n3ncc(C(=O)Nc4ccccc4)c3n2)cc1` , give its reported Emax. 81.6
